Just for reference, the Human Domainome abundance scans (Beltran et al. 2025) is where these values come from.

B1: MEF2-activating motif and SAP domain-containing transcriptional regulator, residues 170 to 204; numbered along this chain, Q6ZN01 (parent)
chain: LKLEELTVSELRQQLRLRGLPVSGTKSMLLERMRG

# Variants of: B1
# experimentSummary: abundance fitness (aPCA) (normalised: wild type 0, dead -1); higher = more abundant; growth selection in yeast, the domain comes from the species named
# experimentalParameters: Homo sapiens
Param threshold (-0.5) applies to abundance fitness; output Yes when value >= threshold, No when value < threshold.

- mut: "G24L"
  label: "No"
- mut: "E31M"
  label: "Yes"
- mut: "R18W"
  label: "Yes"
- mut: "L15R"
  label: "No"
- mut: "P21V"
  label: "Yes"
- mut: "G35S"
  label: "Yes"
- mut: "L29G"
  label: "Yes"
- mut: "M33S"
  label: "Yes"
- mut: "L15Y"
  label: "No"
- mut: "R12G"
  label: "No"
- mut: "L3Y"
  label: "No"
- mut: "M33E"
  label: "Yes"
- mut: "L29S"
  label: "No"
